Would you kindly list growth inhibition for each of these compounds?
Experiment: NCI Yeast Anticancer Drug Screen. Data for the mec2-1 strain (AID 157)
Settings: S. cerevisiae mec2-1 strain, at 50.0 µM, active compounds read high
The panel holds about 79,000 compounds, 15% with a hit somewhere; the sample as a whole holds those more often.
Numbers only, in %.

Completed entries (count: 8):
# COMPOUND, UNIT_TEXT, ENDPOINT_RESULT
data = [
    ("CC(C)SC(=S)S(=O)(=O)c1ccc(Cl)cc1", "%", 99.8),
    ("CCOC(=O)N1CCN(C(=S)N/N=C(\\C)c2ncccn2)CC1", "%", 99.7),
    ("COC(=O)C1=C(C(=O)OC)C2(C)OC1C(=O)C21CC1 (stereo not drawn)", "%", 84.6),
    ("CC1/C=C/C=C/CC/C=C/C=C/C=C/C=C/C(OC2OC(C)C(O)C(N)C2O)CC2OC(CC(O)C(O)CCC(O)CC(O)CC(O)CC(=O)OC(C)C(C)C1O)CC(O)C2C(=O)O (stereo not drawn)", "%", 99.3),
    ("OCCc1ccccc1C(c1ccccc1)c1ccccc1", "%", 99.4),
    ("COc1ccc2c(c1)N=C(N)n1c(nc3ccccc31)S2", "%", 54.6),
    ("Oc1cc(-[n+]2ccccc2)c(O)c2ccccc12", "%", 3.45),
    ("N#Cc1ccc(C2Oc3ccc(Cl)cc3C=C2[N+](=O)[O-])cc1 (stereo not drawn)", "%", 75.7),
]

Would you mind giving growth inhibition for every compound in the list below?
1. CCOC(=O)c1ccc(O)c(OC)c1
2. O=C(c1ccc(Cl)cc1)C1OC12C(=O)Nc1c(Cl)cc(Cl)cc12 (stereo not drawn)
3. CC(C(=O)NN)C(O)C(C)(C)O (stereo not drawn)
4. S=C(Nc1cc(Cl)cc(Cl)c1)SCc1ccccc1
5. CCOc1c(N=Nc2ccccc2OC)c(-c2ccccc2)nn1C(N)=S
6. Cn1c(=S)c2[nH]c(SC3CCCCC3)nc2n(C)c1=O
7. CC(=O)Oc1cccc2c1C(=O)C(Br)(Br)CCC2

Completion:
[1.5, 99.2, 3.8, 99.5, 63, 99.5, 87]
